Every entry's value here was drawn from ChEMBL document CHEMBL4118212.

ASSAY REMARKS: Cytotoxicity against human MT4 cells
Type: cell-based
READOUT NAME: CC50

                                smiles_repr  readout_name  observed_value
0  C#C[C@]1(O)[C@H](n2ccc(=O)[nH]c2=O)O[C@](F)(CO[P@@](=O)(N[C@@H](C)C(=O)OC(C)C)Oc2ccccc2)[C@H]1O          CC50         > 50 µM

----------
ASSAY REMARKS: Mitochondrial toxicity in human PC3 cells assessed as effect on mitochondrial protein synthesis measured after 5 days by ELISA
Format: cell-based, PC-3
READOUT NAME: CC50 at 120 h

>>> print(df.to_string())
                                smiles_repr  observed_value
0  C#C[C@]1(O)[C@H](n2ccc(=O)[nH]c2=O)O[C@](F)(CO[P@@](=O)(N[C@@H](C)C(=O)OC(C)C)Oc2ccccc2)[C@H]1O        > 200 µM

----------
System: dengue virus type 2
ASSAY REMARKS: Antiviral activity against Dengue virus 2 infected in human PBMC after 2 days post infection by plaque assay
Format: functional, organism-based
RECORDED CONDITIONS: 48 h
Consider the following compounds and their measured EC50 readings.
READOUT NAME: EC50

                                   compound  observed_value
0  C#C[C@]1(O)[C@H](n2ccc(=O)[nH]c2=O)O[C@](F)(CO[P@@](=O)(N[C@@H](C)C(=O)OC(C)C)Oc2ccccc2)[C@H]1O         0.57 µM
1  C#C[C@@]1(O)[C@H](O)[C@@H](CO[P@@](=O)(N[C@@H](C)C(=O)OC(C)C)Oc2ccccc2)O[C@H]1n1ccc(=O)[nH]c1=O         0.45 µM
2  C#C[C@@]1(F)[C@H](O)[C@@H](CO[P@@](=O)(N[C@@H](C)C(=O)OC(C)C)Oc2ccccc2)O[C@H]1n1ccc(=O)[nH]c1=O         > 25 µM
3  CC(C)OC(=O)[C@H](C)NP(=O)(OC[C@H]1O[C@@H](n2ccc(=O)[nH]c2=O)[C@](C)(O)[C@@H]1O)Oc1ccccc1 (mixture of isomers)         0.19 µM
4  CC(C)OC(=O)[C@H](C)N[P@](=O)(OC[C@H]1O[C@@H](n2ccc(=O)[nH]c2=O)[C@](C)(F)[C@@H]1O)Oc1ccccc1          1.2 µM
5  CC#C[C@]1(O)[C@H](n2ccc(=O)[nH]c2=O)O[C@](F)(CO[P@@](=O)(N[C@@H](C)C(=O)OC(C)C)Oc2ccccc2)[C@H]1O            9 µM
6  CC#C[C@@]1(O)[C@H](O)[C@@H](CO[P@@](=O)(N[C@@H](C)C(=O)OC(C)C)Oc2ccccc2)O[C@H]1n1ccc(=O)[nH]c1=O          1.9 µM
7  CC(C)OC(=O)[C@H](C)N[P@](=O)(OC[C@@]1(F)O[C@@H](n2ccc(=O)[nH]c2=O)[C@](C)(O)[C@@H]1O)Oc1ccccc1          1.1 µM

----------
MEASURED TARGET: POLRMT (DNA-directed RNA polymerase, mitochondrial) (Homo sapiens)
Sequence (O00411 whole entry): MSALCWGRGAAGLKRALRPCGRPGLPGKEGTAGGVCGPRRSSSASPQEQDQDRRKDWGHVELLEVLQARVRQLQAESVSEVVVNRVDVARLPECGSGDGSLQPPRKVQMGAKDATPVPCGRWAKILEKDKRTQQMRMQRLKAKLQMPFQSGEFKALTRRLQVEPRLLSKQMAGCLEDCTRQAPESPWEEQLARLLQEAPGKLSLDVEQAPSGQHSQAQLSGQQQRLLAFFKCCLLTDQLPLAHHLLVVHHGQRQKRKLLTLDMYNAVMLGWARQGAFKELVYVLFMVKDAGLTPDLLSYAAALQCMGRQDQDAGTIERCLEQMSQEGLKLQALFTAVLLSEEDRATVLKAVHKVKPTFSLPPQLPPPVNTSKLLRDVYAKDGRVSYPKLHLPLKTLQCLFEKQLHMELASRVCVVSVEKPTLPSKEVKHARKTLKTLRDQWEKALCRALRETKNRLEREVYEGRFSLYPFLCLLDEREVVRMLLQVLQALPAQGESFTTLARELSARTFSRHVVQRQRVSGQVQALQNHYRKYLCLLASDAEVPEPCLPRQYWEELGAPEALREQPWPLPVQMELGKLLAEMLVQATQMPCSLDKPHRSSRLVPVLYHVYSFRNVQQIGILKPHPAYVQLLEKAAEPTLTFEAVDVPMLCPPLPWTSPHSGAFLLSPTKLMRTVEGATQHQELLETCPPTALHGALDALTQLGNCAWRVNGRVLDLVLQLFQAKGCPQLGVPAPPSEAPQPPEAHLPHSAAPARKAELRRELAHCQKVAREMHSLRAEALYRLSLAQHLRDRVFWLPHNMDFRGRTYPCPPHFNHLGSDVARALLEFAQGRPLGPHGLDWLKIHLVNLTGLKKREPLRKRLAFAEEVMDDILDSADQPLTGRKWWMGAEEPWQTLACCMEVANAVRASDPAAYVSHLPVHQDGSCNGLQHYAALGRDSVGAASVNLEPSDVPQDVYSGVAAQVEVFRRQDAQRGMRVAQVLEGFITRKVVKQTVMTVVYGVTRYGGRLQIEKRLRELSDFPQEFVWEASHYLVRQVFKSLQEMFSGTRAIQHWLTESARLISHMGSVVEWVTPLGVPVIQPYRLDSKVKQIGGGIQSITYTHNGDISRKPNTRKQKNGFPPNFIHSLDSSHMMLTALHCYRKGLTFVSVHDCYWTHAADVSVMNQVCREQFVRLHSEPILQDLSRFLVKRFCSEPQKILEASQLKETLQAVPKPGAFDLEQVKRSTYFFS
ASSAY REMARKS: Inhibition of human POLRMT using 5'-FAM labelled RNA primer/DNA template duplex assessed as single nucleotide incorporation rate at 500 uM after 5 mins by SDS-PAGE analysis relative to control
Parameters: scale not given: the % may be the effect or the level left
RECORDED CONDITIONS: probe 5'-FAM labelled RNA primer/DNA template duplex, read-out: Activity
READOUT NAME: activity at 5 min, 500 µM (%)

In [3]: df
Out[3]:
                                   compound               readout_name  observed_value
0  C#C[C@@]1(F)[C@H](O)[C@@H](COP(=O)(O)OP(=O)(O)OP(=O)(O)O)O[C@H]1n1ccc(=O)[nH]c1=O  activity at 5 min, 500 µM               2
1  CC#C[C@@]1(F)[C@H](O)[C@@H](COP(=O)(O)OP(=O)(O)OP(=O)(O)O)O[C@H]1n1ccc(=O)[nH]c1=O  activity at 5 min, 500 µM             2.2
2  C#C[C@]1(O)[C@H](n2ccc(=O)[nH]c2=O)O[C@](F)(COP(=O)(O)OP(=O)(O)OP(=O)(O)O)[C@H]1O  activity at 5 min, 500 µM               3
3  C#C[C@@]1(O)[C@H](O)[C@@H](COP(=O)(O)OP(=O)(O)OP(=O)(O)O)O[C@H]1n1ccc(=O)[nH]c1=O  activity at 5 min, 500 µM            16.8
4  CC#C[C@]1(O)[C@H](n2ccc(=O)[nH]c2=O)O[C@](F)(COP(=O)(O)OP(=O)(O)OP(=O)(O)O)[C@H]1O  activity at 5 min, 500 µM             1.7
5  CC#C[C@@]1(O)[C@H](O)[C@@H](COP(=O)(O)OP(=O)(O)OP(=O)(O)O)O[C@H]1n1ccc(=O)[nH]c1=O  activity at 5 min, 500 µM             6.7
6  C[C@]1(O)[C@H](n2ccc(=O)[nH]c2=O)O[C@](F)(COP(=O)(O)OP(=O)(O)OP(=O)(O)O)[C@H]1O [ADAFOSBUVIR 5'-TRIPHOSPHATE]  activity at 5 min, 500 µM             5.7
7  C[C@@]1(O)[C@H](O)[C@@H](COP(=O)(O)OP(=O)(O)OP(=O)(O)O)O[C@H]1n1ccc(=O)[nH]c1=O  activity at 5 min, 500 µM            29.4
8  C[C@@]1(F)[C@H](O)[C@@H](COP(=O)(O)OP(=O)(O)OP(=O)(O)O)O[C@H]1n1ccc(=O)[nH]c1=O  activity at 5 min, 500 µM             1.8
